Consider the following compounds; for each one, report its Kd.
- System name: human RORγt ligand binding domain (RORγt LBD) (Homo sapiens (Human))
- Sequence (P51449 other isoform, or with tags, fused parts or gaps): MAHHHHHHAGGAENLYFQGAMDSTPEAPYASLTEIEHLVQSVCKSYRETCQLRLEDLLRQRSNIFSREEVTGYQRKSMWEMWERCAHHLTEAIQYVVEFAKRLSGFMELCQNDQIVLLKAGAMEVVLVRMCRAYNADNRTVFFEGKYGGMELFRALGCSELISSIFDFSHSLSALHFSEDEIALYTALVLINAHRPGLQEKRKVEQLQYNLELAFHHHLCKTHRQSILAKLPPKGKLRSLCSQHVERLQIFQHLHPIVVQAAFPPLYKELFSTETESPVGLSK
State the result as a value with its unit after it.

Sample records with Kd:
CCn1nc(C(=O)NC[C@]2(O)CC[C@@H](S(C)(=O)=O)CC2)c(C)c1-c1cnc(C[C@@H](C)C(F)(F)F)cc1OC(F)F (single isomer, unassigned)
34 nM
CCc1cc(CC(C)(C)C(F)(F)F)ncc1-c1c(Cl)c(C(=O)NC[C@]2(O)CC[C@@H](S(C)(=O)=O)CC2)nn1CC
30 nM
CCn1nc(C(=O)NC[C@H]2CC[C@H](S(C)(=O)=O)CC2)c(Cl)c1-c1cnc(CC(C)C(F)(F)F)cc1OC (stereo partly shown)
11 nM

Kd lookup needed for "CCn1nc(C(=O)NC[C@H]2CC[C@H](S(=O)(=O)NC(C)=O)CC2)c(Cl)c1-c1cnc(CC(C)(C)C(F)(F)F)cc1OC(F)F" , thanks.
8.7 nM

Hello, the source for this data is patent US11034658B2, in case you need it.
